// reported MIC per item
System: Escherichia coli
PROCEDURE DETAILS: Antimicrobial activity against Escherichia coli MTCC 443 after 24 to 48 hr by broth microdilution method
Type: functional
Unit µg/mL implied. Number only.

// known answers, use as guide
INSERT INTO measurements (molecule, numeric_value) VALUES
  ('Cc1ccc2[nH]c(=O)c(C3NC(=S)N(c4ccccc4)C4=C3C(=O)CCC4)cc2c1 (centres undefined)', 500),
  ('Cc1ccc2[nH]c(=O)c(C3NC(=S)N(c4ccccc4)C4=C3C(=O)CC(C)(C)C4)cc2c1 (centres undefined)', 1000),
  ('O=C1NC2=C(C(=O)CCC2)C(c2cc3ccccc3[nH]c2=O)N1 (centres undefined)', 250);

Now for another entry.
[ask] Find the measured MIC of COc1ccc2[nH]c(=O)c(C3NC(=S)NC4=C3C(=O)CC(C)(C)C4)cc2c1 (centres undefined) and report it.
[reply] 500
